Reference source: paper PMC5155031

Biological target: mIgCLL3-2, CLL-derived monoclonal Igγ1 antibody of clonotype CLL3
Assay: dose-dependent binding with Scatchard plot analysis
REPORTED PROPERTY: Kd (nM)
Answer format: numeric, nM implied, no suffix.

Identify Kd associated with the binder CDVWHSAYC [pCLL3-2 mimotope]
5.64
